Just for reference, patent US20120135923A1 is where these values come from.

Molecular target: T1, human melanocortin receptor subtype 3 (hMC3-R) (human, UniProt P41968 1-323)
T1 construct: whole, on cells; membranes of CHO-K1 cells
T1 sequence (P41968 whole entry): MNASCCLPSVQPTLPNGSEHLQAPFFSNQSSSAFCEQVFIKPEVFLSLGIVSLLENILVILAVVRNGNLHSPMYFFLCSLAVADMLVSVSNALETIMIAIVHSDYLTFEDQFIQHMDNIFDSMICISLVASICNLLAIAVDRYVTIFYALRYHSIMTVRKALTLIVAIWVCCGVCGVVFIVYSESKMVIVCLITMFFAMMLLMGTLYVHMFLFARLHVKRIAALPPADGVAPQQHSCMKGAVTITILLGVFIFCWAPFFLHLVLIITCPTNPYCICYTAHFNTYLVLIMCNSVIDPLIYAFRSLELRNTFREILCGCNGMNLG
Assay: [125I]-NDP-α-MSH competition, membranes
Protocol: Cellular membranes used for the in vitro receptor binding assays were obtained from transgenic CHO-K1 cells stably expressing hMC-R receptor subtypes 1, 3, 4 or 5. […] Competitive inhibition of [¹²⁵I](Tyr²)-(Nle⁴-D-Phe⁷)α-MSH ([¹²⁵I]-NDP-α-MSH, Amersham Biosciences®) binding was carried out in polypropylene 96 well plates. […] Binding data were analyzed by computer-assisted non-linear regression analysis (XL fit; IDBS).
Bridge positions count the residues as written; N and C are the ends. Square brackets hold non-standard residues; d marks the D form. Ends that are not written are not given here. 1Nal = N[C@@H](Cc1cccc2ccccc12)C(=O)O; d2Nal = N[C@H](Cc1ccc2ccccc2c1)C(=O)O; Bta = N[C@@H](Cc1csc2ccccc12)C(=O)O; Aic = NC1(C(=O)O)Cc2ccccc2C1; βAla = NCCC(=O)O
Ki listing for selected binders.

Binder	Ki, nM
Ac-CEH[d2Nal]R[Bta]ACPPKD[βAla]GRRRRRQRRR-NH2 (disulfide 1-8) [Ac-c(Cys-Glu-His-D-2-Nal-Arg-Bal-Ala-Cys)-Pro-Pro-Lys-Asp-β-[…]NH2]	15.9
Ac-CEH[d2Nal]R[1Nal]ACPPKD[βAla]RKRRRQRRR-NH2 (disulfide 1-8) [Ac-c(Cys-Glu-His-D-2-Nal-Arg-1-Nal-Ala-Cys)-Pro-Pro-Lys-Asp-β-[…]NH2]	3.99
D[Aic][d2Nal]RWK-NH2 (lactam 1-6; also: hydantoin ring: N-terminal N of Asp1 and backbone N of residue 2 bridged by one C(O), bridge at N via C(O), other end not in the chain) [c[Hydantoin(C(O)-(Asp-Aic))-D-2-Nal-Arg-Trp-Lys]-NH2]	2630
